EC50 values by entry
# system.tested: T1, human CD24 on cells (human, UniProt P25063 27-59)
# T1 construct: whole, on cells; One molecule for all cell lines; the cell line is named under assay or readout; also called cell surface CD24; cell-based CD24
# T1 chain (looked up): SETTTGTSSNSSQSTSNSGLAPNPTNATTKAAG
# method.notes: flow cytometry (GMFI), MCF-7 cells; EC50 table under the graphs
quantity.kind: EC50 (µg/mL)

{"columns": ["binder", "quantity.kind", "quantitative.readout"],
 "data": [
  ["VH2 + VL2 (humanized 4451) (antibody, V domains shown, IgG expressed in HEK293) VH: QVQLVQSGAEVKKPGASVKVSCKASGYDFTGYHMNWVRQAPGQGLEWIGEINPITSDKTFNQKFKSRVTMTVDTSISTAYMELSRLRSDDTAVYYCARRDYGTSLDYWGQGTTVTVSS VL: DIQLTQSPSFLSASVGDRVTITCRASKSISKYLAWYQQKPGKAPRLLIYAGSTLHSGVPSRFRGSGSGTEFTLTISSLQPEDFATYYCQQHNEYPITFGQGTKLEIK", "EC50", 0.75],
  ["VH3 + VL2 (humanized 4451) (antibody, V domains shown, IgG expressed in HEK293) VH: QVQLVQSGAEVKKPGASVKVSCKASGYDFTGYHMNWVRQAPGQGLEWIGEINPITSDKTFNQKFKSRATMTVDTSISTAYMELSRLRSDDTAVYYCARRDYGTSLDYWGQGTTVTVSS VL: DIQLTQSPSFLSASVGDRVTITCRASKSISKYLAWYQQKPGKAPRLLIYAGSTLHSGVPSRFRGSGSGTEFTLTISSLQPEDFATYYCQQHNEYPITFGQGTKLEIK", "EC50", 0.52],
  ["VH1 + VL2 (humanized 4451) (antibody, V domains shown, IgG expressed in HEK293) VH: QVQLVQSGAEVKKPGASVKVSCKASGYDFTGYHMNWVRQAPGQGLEWMGEINPITSDKTFNQKFKSRVTMTRDTSISTAYMELSRLRSDDTAVYYCARRDYGTSLDYWGQGTTVTVSS VL: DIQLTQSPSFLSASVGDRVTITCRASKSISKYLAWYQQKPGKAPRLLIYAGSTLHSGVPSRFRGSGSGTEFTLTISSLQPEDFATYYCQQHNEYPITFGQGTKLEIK", "EC50", 0.4]
]}
